- system.under.test: THR alpha-LBD (Homo sapiens, UniProt P10827)
- Construct: except that THR alpha-LBD of a final concentration 0.25 nM was used; purchased Invitrogen PV4687
- Sequence (P10827 163-410 isoform P10827-2 limits assumed, other chains not shown): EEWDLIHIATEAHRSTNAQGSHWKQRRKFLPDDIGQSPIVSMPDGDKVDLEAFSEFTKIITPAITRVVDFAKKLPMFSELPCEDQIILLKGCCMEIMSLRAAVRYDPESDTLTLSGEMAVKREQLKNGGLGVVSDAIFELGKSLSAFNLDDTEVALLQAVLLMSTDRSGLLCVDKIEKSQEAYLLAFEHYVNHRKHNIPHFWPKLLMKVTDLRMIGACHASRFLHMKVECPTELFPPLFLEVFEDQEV
- measurement.description: THR-α Coactivator Peptide Recruitment Assay (LanthaScreen TR-FRET)
- Format: biochemical
- cond: TR-FRET coactivator recruitment, THR alpha-LBD 0.25 nM
measurement.label: THRα Emax

Please review the entries below; each comes with its answer.
[
  {
    "smi": "CNC(=O)C1(N[S@SP3](=O)(=O)c2cc(Oc3c(Cl)cc(-n4nc(C(F)(F)F)c(=O)[nH]c4=O)cc3Cl)ccc2O)CC1",
    "THRα Emax": "C (<40)"
  },
  {
    "smi": "O=c1[nH]c(=O)n(-c2cc(Cl)c(Oc3cc(S(=O)(=O)N[C@H]4CC[C@H](O)CC4)c(O)cn3)c(Cl)c2)nc1C(F)F",
    "THRα Emax": "B (40~85)"
  },
  {
    "smi": "CS(=O)(=O)N[C@H]1CCN(S(=O)(=O)c2cc(Oc3c(Cl)cc(-n4nc(C(F)F)c(=O)[nH]c4=O)cc3Cl)ccc2O)C1",
    "THRα Emax": "B (40~85)"
  },
  {
    "smi": "CNC(=O)N1CC(NS(=O)(=O)c2cc(Oc3c(Cl)cc(-n4nc(C(F)F)c(=O)[nH]c4=O)cc3Cl)ccc2O)C1",
    "THRα Emax": "C (<40)"
  },
  {
    "smi": "O=C(N1CCCC1)C1(NS(=O)(=O)c2cc(Oc3c(Cl)cc(-n4nc(C(F)F)c(=O)[nH]c4=O)cc3Cl)ccc2O)CC1",
    "THRα Emax": "B (40~85)"
  }
]

Next item in the queue.
I have this compound here, O=C(NCC1(NS(=O)(=O)c2cc(Oc3c(Cl)cc(-n4nc(C(F)F)c(=O)[nH]c4=O)cc3Cl)ncc2O)CC1)C1CC1 , and I need its recorded THRα Emax.
B (40~85)

====

- system.under.test: THR beta-LBD (Homo sapiens)
- Construct: THR beta-LBD (the final concentration is 0.5 nM) was added to the 384-well assay plate; purchased Invitrogen PV4686
- measurement.description: THR-β Coactivator Peptide Recruitment Assay (LanthaScreen TR-FRET)
- Format: biochemical
- cond: TR-FRET coactivator recruitment, THR beta-LBD 0.5 nM

[
  {
    "smi": "O=c1[nH]c(=O)n(-c2cc(Cl)c(Oc3ccc(O)c(S(=O)(=O)N[C@H]4C[C@H](C(=O)NC5CC5)C4)c3)c(Cl)c2)nc1C(F)F",
    "THRβ Emax": "B (75~90)"
  },
  {
    "smi": "CS(=O)(=O)CC1(NS(=O)(=O)c2cc(Oc3c(Cl)cc(-n4nc(C(F)F)c(=O)[nH]c4=O)cc3Cl)ccc2O)CC1",
    "THRβ Emax": "B (75~90)"
  },
  {
    "smi": "O=c1[nH]c(=O)n(-c2cc(Cl)c(Oc3ccc(O)c(S(=O)(=O)N[C@H]4CC[C@@H](O)C4)c3)c(Cl)c2)nc1C(F)F",
    "THRβ Emax": "B (75~90)"
  }
]

====

- system.under.test: THR beta-LBD (Homo sapiens, UniProt P10828)
- Construct: THR beta-LBD (the final concentration is 0.5 nM) was added to the 384-well assay plate; purchased Invitrogen PV4686
- Sequence (P10828 217-461 limits assumed): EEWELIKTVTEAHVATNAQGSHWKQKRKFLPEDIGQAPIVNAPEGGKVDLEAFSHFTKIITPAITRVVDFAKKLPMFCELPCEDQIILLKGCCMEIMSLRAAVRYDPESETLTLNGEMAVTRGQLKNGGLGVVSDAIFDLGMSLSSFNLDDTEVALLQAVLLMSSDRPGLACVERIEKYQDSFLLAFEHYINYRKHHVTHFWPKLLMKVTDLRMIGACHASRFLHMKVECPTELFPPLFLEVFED
- measurement.description: THR-β Coactivator Peptide Recruitment Assay (LanthaScreen TR-FRET)
- Type: biochemical
- cond: TR-FRET coactivator recruitment, THR beta-LBD 0.5 nM
- Procedure: A time-resolved FRET (TR-FRET) assay was used to test representative compounds of the application. THR-β Coactivator Peptide Recruitment Assay were conducted by using Invitrogen's LanthaScreen™ TR-FRET Thyroid Receptor beta Assay Kit (Catalog no. PV4686). […] After a gentle mix and incubation at room temperature for 2 h, the signal was read on the EnVision Multilabel Plate Reader at wavelengths of 520 nm and 495 nm. […]
measurement.label: THRβ Emax

[
  {
    "compound": "O=c1[nH]c(=O)n(-c2cc(Cl)c(Oc3ccc(O)c(S(=O)(=O)NC[C@H]4C[C@@H](O)C4)c3)c(Cl)c2)nc1C(F)F [Compound 44]",
    "THRβ Emax": "B (75~90)"
  },
  {
    "compound": "CNS(=O)(=O)c1cc(Oc2c(Cl)cc(-n3nc(C(F)F)c(=O)[nH]c3=O)cc2Cl)ccc1O [Compound 13]",
    "THRβ Emax": "A (90~110)"
  },
  {
    "compound": "CNS(=O)(=O)c1cc(Oc2c(Cl)cc(-n3nc(C(F)F)c(=O)[nH]c3=O)cc2Cl)ncc1O [Compound 72]",
    "THRβ Emax": "A (90~110)"
  },
  {
    "compound": "O=c1[nH]c(=O)n(-c2cc(Cl)c(Oc3ccc(O)c(S(=O)(=O)N[C@@H]4CC[C@@H](O)C4)c3)c(Cl)c2)nc1C(F)F (racemic) [Compound 75]",
    "THRβ Emax": "C (<75)"
  }
]

Quick check: THRβ Emax of O=c1[nH]c(=O)n(-c2cc(Cl)c(Oc3ccc(O)c(S(=O)(=O)N4CCC4)c3)c(Cl)c2)nc1C(F)F [Compound 28] ?
B (75~90)

Could you tell me which THRβ Emax is on file for O=c1[nH]c(=O)n(-c2cc(Cl)c(Oc3cc(S(=O)(=O)NC4CCOCC4)c(O)cn3)c(Cl)c2)nc1C(F)F [Compound 136] ?
B (75~90)

Which measured THRβ Emax value corresponds to O=C(CNS(=O)(=O)c1cc(Oc2c(Cl)cc(-n3nc(C(F)F)c(=O)[nH]c3=O)cc2Cl)ncc1O)NC1CC1 [Compound 120] ?
C (<75)

meta.source: patent US12291518B2
